B1: RILP-like protein 2 (Homo sapiens), Q969X0 (parent)
chain: MEEPPVREEEEEEGEEDEERDEVGPEGALGKSPFQLTAEDVYDISYLLGRELMALGSDPRVTQLQFKVVRVLEMLEALVNEGSLALEELKMERDHLRKEVEGLRRQSPPASGEVNLGPNKMVVDLTDPNRPRFTLQELRDVLQERNKLKSQLLVVQEELQCYKSGLIPPREGPGGRREKDAVVTSAKNAGRNKEEKTIIKKLFFFRSGKQT

Variants of: B1
condition: with rab8a_human RAB8A
result_type: effect of a mutation on the interaction

> print(dat)
   variant.identifier  observed.value
1               R139Q  with no effect
2               R139A  with no effect
